Values from patent US8143212B2

# method description: clinical
# experimental parameters: human, in vivo, 1120 mg, Cmax
metric: Cmax (µg/mL)
One number for each entry, in µg/mL.

Given item CN[C@H]1C(=O)N[C@@H]2Cc3ccc(cc3)Oc3cc4cc(c3O[C@@H]3O[C@H](C(=O)O)[C@@H](O)[C@H](O)[C@H]3NC(=O)CCCCCCCCC(C)C)Oc3ccc(cc3Cl)[C@@H](O)[C@@H]3NC(=O)[C@H](NC(=O)[C@@H]4NC(=O)[C@@H](NC2=O)c2cc(cc(O)c2Cl)Oc2cc1ccc2O)c1ccc(O)c(c1)-c1c(O[C@H]2O[C@H](CO)[C@@H](O)[C@H](O)[C@@H]2O)cc(O)cc1[C@@H](C(=O)NCCCN(C)C)NC3=O [Dalbavancin] , the value recorded as its Cmax is 325
